Origin of measurements: patent US20230126400A1

Measured ratio of MFI over secondary antibody alone of individual entries
- STUDY_TARGET: human MS4A4A (human, UniProt Q96JQ5 1-239)
- ASSAY_INFO: FACS, U937 cells overexpressing human MS4A4A, 5 ug/ml
- Description: Purified huIgG1 chimeric anti-MS4A4A antibodies were screened for their ability to differentially bind MS4A4A on U937 cells stably overexpressing human MS4A4A, U937 cells with human MS4A4A knocked out, and parental U937 cells. Differential binding to MS4A4A expressed on these cells was assessed by FACS analysis using 5 μg/ml of purified anti-MS4A4A chimeric antibodies, as described above.
Report only the number, with the unit ratio understood.

Here's what some known entries look like.
1. anti-MS4A4A antibody 4A-201, huIgG1 chimera (antibody, V domains shown) VH: QVQLRESGPGLVAPSQSLSITCTVSGFSLSSFGVTWVRQPPGKGLEWLGIIWGDGSTNYHSALISRLSISKDNSKSQVFLKLNRLQTDDTATYYCAKRDYDGREDVMGYWGQGTSVTVSS VL: DIVMTQSQKFMSTSVGDRVSITCKATQNVRTAVAWYQQKPGQSPKPLIYLASNRHTGVPDRFTGSGSGTDFTLTITNVQSEDLADYFCLQHWSYPLTFGAGTKLEMK = 8.9
2. anti-MS4A4A antibody 4A-208, huIgG1 chimera (antibody, V domains shown) VH: EVHLQQSGAEVVKPGASVKLSCTASGFNIKDTYIHWVMQRPEQGLEWIGRIDPANDNTKYDPKFQGKATITSDTSSNTAYLHLSSLTSEDTAVYYCARIAYGSWALDYWGQGTSVTVSS VL: DIVMTQSQKFMSTSVGDRVIVTCKASQNVDTNVAWYQQKPGQSPKTLIYSASFRYSGVPDRFTGSGSGTDFTLSISNVQSEDLAEYFCQQYNSYPWTFGGGTKLEIK = 19.9
3. anti-MS4A4A antibody 4A-207, huIgG1 chimera (antibody, V domains shown) VH: EVNLEESGGGLVQPGGSMKLSCVASGFTFNNYWMNWVRQSPEKGLEWVAEIRLKSNNYATHYAESVKGRFTISRDDSKSSVYLQMNNLRPEDTAIYYCTTDPPMDYSGQGTPVTVSS VL: QIVLTQSPAFMSASPGEKVTITCSASSSVSYMHWFQQKPGTSPKLWIYSTSNLVSGVPDRFSGSGSGTSYSLTISRMEAEYAATYYCHQRTSYPWTFGGGTKLEIK = 10
4. anti-MS4A4A antibody 4A-217, huIgG1 chimera (antibody, V domains shown) VH: EVKLVESGGGLVKPGGSLKLSCAASGFTFSSYGMSWVRQTPEKRLEWVAHISGGGTFTHYPDSVKGRFTISRDNAKNNLYLQMSSLRSEDTALYYCAREGAGTRFAYWGQGTLVTVSS VL: DIQMTQTTSSLSASLGDRVTISCRPSQDISNSLNWYQQKPDGTVKLLIYSTSKLHSGVPSRFSGSGSGIDYSLTISNLEQEDIATYFCQQDYTLPWTFGGGTKLDVK = 23.6

For anti-MS4A4A antibody 4A-206, huIgG1 chimera (antibody, V domains shown) VH: EVKLVESGGGLVKPGGSLKLSCAASGFTFSSYTMSWVRQTPEKRLEWVASLSSGGSTYYPDSVKGRFTISRDNARNILYLQMSSLRSEDTAMYYCAKDYYVSSYRWYFDVWGAGTTVTVSS VL: DIQMTQITSSLSASLGDRVTISCRASQDISNYLNWYQQKPDGTVKLLIYYTSNLHSGVPSRFSGSGSGTDYSLTISNLEQEDIATYFCQQGKSFPWTFGGGTKLEIK the binder record lists ratio of MFI over secondary antibody alone as 18.5
